Max Editing for assorted molecules
Tested on: TTR
Experiment: EC50 and maximum editing in primary cyno hepatocytes treated with LNP formulated U-depleted Spy Cas9 mRNA and sgRNAs (Tables 20, 22)
Type: cell-based, cynomolgus monkey
Parameters: key: % of sequence reads with indels or substitutions over total reads
Details: Table 22, LNP with U-depleted Spy Cas9 mRNA and cyno specific sgRNAs, dose response
Strand notation (5' to 3'): a small letter for the sugar, then the base; units joined by * are phosphorothioate-linked, units joined directly phosphodiester-linked; [ ] holds rarer units or linkages, { } end groups; capitals alone tell only the bases. m = 2'-O-methyl; r = 2'-OH (RNA)
API doc: respond with a numeric literal and nothing else, no unit.

Consider G000504: TTR Cyno specific sgRNA modified sequence, SEQ ID No. 116; guide sequence of CR005364 (nucleic acid) guide: mA*mA*mA*rGrGrCrUrGrCrUrGrArUrGrArGrArCrCrUrGrUrUrUrUrArGrAmGmCmUmAmGmAmAmAmUmAmGmCrArArGrUrUrArArArArUrArArGrGrCrUrArGrUrCrCrGrUrUrArUrCrAmAmCmUmUmGmAmAmAmAmAmGmUmGmGmCmAmCmCmGmAmGmUmCmGmGmUmGmCmU*mU*mU*mU . Its measured Max Editing is 98.04

Sample G000506: TTR Cyno specific sgRNA modified sequence, SEQ ID No. 118; guide sequence of CR005366 (nucleic acid) guide: mA*mU*mA*rCrCrArGrUrCrCrArGrCrGrArGrGrCrArGrGrUrUrUrUrArGrAmGmCmUmAmGmAmAmAmUmAmGmCrArArGrUrUrArArArArUrArArGrGrCrUrArGrUrCrCrGrUrUrArUrCrAmAmCmUmUmGmAmAmAmAmAmGmUmGmGmCmAmCmCmGmAmGmUmCmGmGmUmGmCmU*mU*mU*mU ; Max Editing observed: 99.18

G000505: TTR Cyno specific sgRNA modified sequence, SEQ ID No. 117; guide sequence of CR005365 (nucleic acid) guide: mC*mA*mU*rUrGrArCrArGrCrArGrGrArCrUrGrCrCrUrGrUrUrUrUrArGrAmGmCmUmAmGmAmAmAmUmAmGmCrArArGrUrUrArArArArUrArArGrGrCrUrArGrUrCrCrGrUrUrArUrCrAmAmCmUmUmGmAmAmAmAmAmGmUmGmGmCmAmCmCmGmAmGmUmCmGmGmUmGmCmU*mU*mU*mU has a reported Max Editing of 99.97

Given item G000503: TTR Cyno specific sgRNA modified sequence, SEQ ID No. 115; guide sequence of CR005372 (nucleic acid) guide: mA*mA*mA*rArGrGrCrUrGrCrUrGrArUrGrArGrArCrCrGrUrUrUrUrArGrAmGmCmUmAmGmAmAmAmUmAmGmCrArArGrUrUrArArArArUrArArGrGrCrUrArGrUrCrCrGrUrUrArUrCrAmAmCmUmUmGmAmAmAmAmAmGmUmGmGmCmAmCmCmGmAmGmUmCmGmGmUmGmCmU*mU*mU*mU , the value recorded as its Max Editing is 83.41
